The values you see were collected from patent US8937078B2.

Molecular target: human PHD2 (PHD2181-417) (Homo sapiens)
Construct: Smt (SUMO) tag (cleaved yes); made in house; host or cells: E. coli BL21 (pBAD vector)
Experiment: PHD enzymatic assay ([14C]-succinic acid production)
Type: biochemical
Conditions: PHD2181-417, HIF-1α peptide 10 μM, average of results; read-out: Enzyme pIC50 (converted)
quantity name: IC50 (nM)

Example entries begin here.
{"columns": ["molecule", "quantity name", "experimental result"],
 "data": [
  ["COc1ccc(Sc2cc3c(=O)nc(-n4cc(C(=O)O)cn4)[nH]c3cc2Cl)cc1OC [Example 26]", "IC50", 31.6],
  ["Cc1cccc(-c2ccc3c(=O)[nH]c(-n4cc(C(=O)O)cn4)nc3c2)c1 [Example 189]", "IC50", 50.1],
  ["O=C(O)c1cnn(-c2nc3c(F)ccc(F)c3c(=O)[nH]2)c1 [Example 116]", "IC50", 200],
  ["CC(C)(C)c1cccc2c(=O)[nH]c(-n3cc(C(=O)O)cn3)nc12 [Example 115]", "IC50", 158]
]}

A. O=C(O)c1cnn(-c2nc3cc(F)c(Oc4ccc5ccccc5c4)cc3c(=O)[nH]2)c1 [Example 52]
B. COc1ccc(-c2ccc3nc(-n4cc(C(=O)O)cn4)[nH]c(=O)c3c2)cc1 [Example 200]
Ask | Thinking about recorded IC50 values, which is higher, A or B ? Respond with the label that goes with your answer.
Reply | A

1. Cc1cc2nc(-n3cc(C(=O)O)cn3)[nH]c(=O)c2cc1Oc1ccccc1 [Example 59]
2. O=C(O)c1cnn(-c2nc3ccc(NCc4c(F)cccc4F)cc3c(=O)[nH]2)c1 [Example 176]
Ask | Name the one with the greater IC50 value, either 1 or 2 as given. Answer by quoting the chosen item's label.
Reply | 2
(2: 39.8 nM, 1: 25.1 nM)

* * *

Emax at 100 µM by entry:
System: Hep-3B cells
Test: Cellular assay: erythropoietin secretion in Hep-3B cells
Format: cell-based, human
Settings: Homo sapiens, Hep3B, 100 μM compound, 24 hours, percent of EPO secretion relative to assay control compound 7-[(4-Chloro-phenyl)-(5-methyl-isoxazol-3-ylamino)-methyl]-quinolin-8-ol, read-out: Cellular % EPO Stimulation
// return numeric value only (unit: %, not printed)

Here is how some compounds turned out for Emax at 100 µM.
{"columns": ["compound", "Emax at 100 µM / %"],
 "data": [
  ["O=C(O)c1cnn(-c2nc3c(-c4ccccc4)cccc3c(=O)[nH]2)c1 [Example 111]", 24],
  ["O=C(O)c1cnn(-c2nc3ccc(NCc4c(F)cccc4F)cc3c(=O)[nH]2)c1 [Example 176]", 26],
  ["O=C(O)c1cnn(-c2nc3ccc(SC(F)(F)F)cc3c(=O)[nH]2)c1 [Example 156]", 19],
  ["O=C(O)c1cnn(-c2nc3cc(Cl)c(Oc4ccc5ccccc5c4)cc3c(=O)[nH]2)c1 [Example 54]", 90],
  ["Cc1cc(C)cc(Oc2cc3c(=O)[nH]c(-n4cc(C(=O)O)cn4)nc3cc2F)c1 [Example 94]", 90]
]}

Then there is this compound:
Ask | Read off the recorded Emax at 100 µM for O=C(O)c1cnn(-c2nc3cc(Sc4ccccc4)ccc3c(=O)[nH]2)c1 [Example 78]
Reply | 5

* * *

Tested on: Hep-3B cells
Assay: Cellular assay: erythropoietin secretion in Hep-3B cells
Format: cell-based, human
Conditions: Homo sapiens, Hep3B, 100 μM compound, 24 hours, percent of EPO secretion relative to assay control compound 7-[(4-Chloro-phenyl)-(5-methyl-isoxazol-3-ylamino)-methyl]-quinolin-8-ol, read-out: Cellular % EPO Stimulation
Each item that follows carries a reported Emax at 100 µM.
Could you give me the number in %? Just the number is fine.

{"columns": ["compound", "Emax at 100 µM [%]"],
 "data": [
  ["O=C(O)c1cnn(-c2nc3cc(F)c(Oc4ccccc4)c(F)c3c(=O)[nH]2)c1 [Example 64]", 22]
]}

Ask | Provide measured Emax at 100 µM value, entry: O=C(O)c1cnn(-c2nc3cc(F)c(C4CCCCC4)cc3c(=O)[nH]2)c1 [Example 110]
Reply | 47

Ask | Supply reported Emax at 100 µM belonging to this compound: COc1ccc(Sc2cc3c(=O)nc(-n4cc(C(=O)O)cn4)[nH]c3cc2Cl)cc1OC [Example 26]
Reply | 55

Ask | Give the value of Emax at 100 µM reported for the following: Cc1ccc(-c2ccc3nc(-n4cc(C(=O)O)cn4)[nH]c(=O)c3c2)cc1 [Example 191]
Reply | 31

Ask | Identify measured Emax at 100 µM associated with O=C(O)c1cnn(-c2nc3ccc(Oc4cc(Cl)ccc4Cl)cc3c(=O)[nH]2)c1 [Example 40]
Reply | 77

Ask | Supply measured Emax at 100 µM of O=C(O)c1cnn(-c2nc3c(F)cccc3c(=O)[nH]2)c1 [Example 118] in your reply.
Reply | 16

* * *

Tested on: Hep-3B cells
Experiment: Cellular assay: erythropoietin secretion in Hep-3B cells
Format: cell-based, human
Settings: Homo sapiens, Hep3B, 100 μM compound, 24 hours, percent of EPO secretion relative to assay control compound 7-[(4-Chloro-phenyl)-(5-methyl-isoxazol-3-ylamino)-methyl]-quinolin-8-ol, read-out: Cellular % EPO Stimulation
quantity name: Emax at 100 µM (%)
Lab book: enter the figure in %, no units written.

// below: answered molecules
{"columns": ["molecule", "Emax at 100 µM (%)"],
 "data": [
  ["COc1ccc(Oc2ccc3nc(-n4cc(C(=O)O)cn4)[nH]c(=O)c3c2)cc1", 112],
  ["Cc1cc2nc(-n3cc(C(=O)O)cn3)[nH]c(=O)c2cc1Oc1cccc(C(F)(F)F)c1", 153]
]}

Shifting focus to the molecule that follows.
Ask | Please give the documented Emax at 100 µM of Cc1cccc(C)c1Oc1cc2c(=O)[nH]c(-n3cc(C(=O)O)cn3)nc2cc1Cl
Reply | 55

* * *

Target: human PHD2 (PHD2181-417) (Homo sapiens, UniProt Q9GZT9)
Construct: Smt (SUMO) tag (cleaved yes); made in house; host or cells: E. coli BL21 (pBAD vector)
Sequence (Q9GZT9 181-417): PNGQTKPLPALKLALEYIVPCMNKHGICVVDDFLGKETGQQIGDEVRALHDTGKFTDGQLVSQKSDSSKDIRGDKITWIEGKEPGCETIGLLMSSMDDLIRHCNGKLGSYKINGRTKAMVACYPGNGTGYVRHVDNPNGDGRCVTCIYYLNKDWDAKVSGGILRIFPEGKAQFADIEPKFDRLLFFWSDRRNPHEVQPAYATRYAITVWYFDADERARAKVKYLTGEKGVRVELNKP
Test: PHD enzymatic assay ([14C]-succinic acid production)
Type: biochemical
Conditions: PHD2181-417, HIF-1α peptide 10 μM, average of results; read-out: Enzyme pIC50 (converted)
quantity name: IC50 (nM)

{"columns": ["molecule", "unit descriptor", "IC50"],
 "data": [
  ["Cc1cccc(C)c1OCc1ccc2nc(-n3cc(C(=O)O)cn3)[nH]c(=O)c2c1 [Example 75]", "nM", 20],
  ["O=C(O)c1cnn(-c2nc3ccc(NCc4c(Cl)cccc4Cl)cc3c(=O)[nH]2)c1 [Example 181]", "nM", 25.1]
]}

I. O=C(O)c1cnn(-c2nc3cc(Cl)c(N4CCc5ccccc5C4)cc3c(=O)[nH]2)c1 [Example 84]
II. Cc1cccc(C)c1Oc1cc2c(=O)[nH]c(-n3cc(C(=O)O)cn3)nc2cc1Cl [Example 49]
III. O=C(O)c1cnn(-c2nc3c(Sc4ccccc4)cccc3c(=O)[nH]2)c1 [Example 113]
Ask | Order the records so the highest IC50 appears first and the lowest last. To answer, write out the labels according to the requested order.
Reply | III, II, I

* * *

Target: human PHD2 (PHD2181-417) (Homo sapiens, UniProt Q9GZT9)
Construct: Smt (SUMO) tag (cleaved yes); made in house; host or cells: E. coli BL21 (pBAD vector)
Test: PHD enzymatic assay ([14C]-succinic acid production)
Format: biochemical
Settings: PHD2181-417, HIF-1α peptide 10 μM, average of results; read-out: Enzyme pIC50 (converted)
quantity name: IC50 (nM)

{"columns": ["molecule", "study system", "IC50 [nM]"],
 "data": [
  ["O=C(O)c1cnn(-c2nc3cc(F)c(Oc4cc(Cl)ccc4Cl)cc3c(=O)[nH]2)c1 [Example 87]", "human PHD2 (PHD2181-417) (Homo sapiens, UniProt Q9GZT9)", 20]
]}

I. O=C(O)c1cnn(-c2nc3cc(-c4ccccc4Cl)ccc3c(=O)[nH]2)c1 [Example 185]
II. O=C(O)c1cnn(-c2nc3ccc(Oc4cccc5ccccc45)cc3c(=O)[nH]2)c1 [Example 29]
Ask | Just tell me: smaller IC50 value, I or II ? Answer by stating the label of the chosen item.
Reply | II

* * *

Test system: Hep-3B cells
Assay: Cellular assay: erythropoietin secretion in Hep-3B cells
Format: cell-based, human
Details: Homo sapiens, Hep3B, 100 μM compound, 24 hours, percent of EPO secretion relative to assay control compound 7-[(4-Chloro-phenyl)-(5-methyl-isoxazol-3-ylamino)-methyl]-quinolin-8-ol, read-out: Cellular % EPO Stimulation
quantity name: Emax at 100 µM (%)
Record the value in %, omitting the unit from your answer.

Here are 3 compounds together with their reported answers.
{"columns": ["compound", "study system", "Emax at 100 µM, %"],
 "data": [
  ["CC(C)c1ccc2nc(-n3cc(C(=O)O)cn3)[nH]c(=O)c2c1", "Hep-3B cells", 115],
  ["Nc1ccc2nc(-n3cc(C(=O)O)cn3)[nH]c(=O)c2c1", "Hep-3B cells", 8],
  ["O=C(O)c1cnn(-c2nc3cc(Oc4ccccc4)ccc3c(=O)[nH]2)c1", "Hep-3B cells", 41]
]}

Ask | Quickly give me recorded Emax at 100 µM for COc1cc2nc(-n3cc(C(=O)O)cn3)[nH]c(=O)c2cc1Oc1c(C)cccc1C
Reply | 86

Ask | Dear colleague, please send me the reported Emax at 100 µM for CCOc1ccc2c(=O)[nH]c(-n3cc(C(=O)O)cn3)nc2c1 when you can.
Reply | 38

Ask | // Input: O=C(O)c1cnn(-c2nc3cc(-c4ccccc4Cl)ccc3c(=O)[nH]2)c1 . Output its Emax at 100 µM only.
Reply | 15
